Data provenance: ChEMBL document CHEMBL1961873

Target or system: Serine/threonine-protein kinase pim-1 (Homo sapiens) (UniProt P11309);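 note: reported figures are mean percent inhibition of PIM1 kinase activity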
Sequence (P11309 whole entry, looked up): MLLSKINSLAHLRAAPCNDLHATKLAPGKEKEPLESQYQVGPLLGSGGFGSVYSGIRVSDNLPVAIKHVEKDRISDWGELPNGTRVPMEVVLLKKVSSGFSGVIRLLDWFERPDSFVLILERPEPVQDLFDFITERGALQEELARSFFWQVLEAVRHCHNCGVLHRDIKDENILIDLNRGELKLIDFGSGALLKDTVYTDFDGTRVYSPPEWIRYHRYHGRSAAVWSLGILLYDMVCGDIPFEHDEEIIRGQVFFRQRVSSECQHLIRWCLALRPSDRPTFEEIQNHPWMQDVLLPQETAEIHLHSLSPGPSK
Reported conditions: at 1 µM
compounds and their reported inhibition
Please give a number only; it is taken to be in %.

Q: Can you share its inhibition? I mean this compound: `NS(=O)(=O)c1cccc(-c2cc3ccncc3cc2OCc2ccccc2)c1`
Result: 0.91

Q: What value of inhibition has been recorded for this entry: `Cc1cc(O)cc(C)c1/C=C/c1cncc(C(=O)N(C)C)c1`
Result: 2.17

Q: Using the record for `CC(C)c1ccc(Nc2nccc(-c3cnn4ncccc34)n2)cc1` , report its inhibition.
Result: 2.45

* * *

Target or system: Proto-oncogene tyrosine-protein kinase receptor Ret (Homo sapiens);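 note: each listed value is an averaged inhibition figure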
Reported conditions: at 1 µM
Could you label it Met if measured inhibition is 30% or higher, and Not met otherwise?

Answered cases to consult:
>>> print(df.to_string())
                                   molecule  class_label
0  COC(=O)c1ccc2c(c1)C(=Cc1cc(Br)c(O)c(Br)c1)C(=O)N2      Not met
1  Cc1ccc2c(-c3ccnc(Nc4cccc(C(F)(F)F)c4)n3)c(-c3ccccc3)nn2n1          Met
2  CCn1c(-c2nonc2N)nc2c(C#CC(C)(C)O)nc(OCCNC)cc21      Not met

Q: Hello, I need to know if `c1ccc(Nc2ncc(-c3ccccc3)o2)cc1` has measured inhibition not below 30%. Thanks!
Result: Not met

Q: Could you tell me if the measured inhibition of `Cc1cc(Cl)cc2c1NC(=O)C2=NNc1ccc(S(N)(=O)=O)cc1` reaches 30% or more?
Result: Not met
